Provenance of the data: paper PMC9401491

- Test system: CAKI-1
- RUN_DESCRIPTION: MTT cell viability, CAKI-1
- Type: cell-based
- PARTICULARS: Homo sapiens, CAKI-1, 48 h
PROPERTY_LABEL: pIC50
API: returns pIC50 as number; meaning -log10 of concentration in mol/L.

Tell me reported pIC50 for C[C@H](NP(=O)(OC[C@@H]1C[C@@H](O)[C@H](n2cnc3c(N)ncnc32)O1)Oc1ccccc1)C(=O)OCc1ccccc1 (stereo partly shown) [NUC-7738] , tested with CAKI-1.
4.48

----------
- Tested on: 786-O
- RUN_DESCRIPTION: IC50 in renal cancer cell line 786-O
- Assay type: cell-based
- PARTICULARS: Homo sapiens, 786-0
PROPERTY_LABEL: pIC50
The scale used: pIC50 is minus the common logarithm of the concentration in molar units.

Reported pIC50 for 786-O, given C[C@H](NP(=O)(OC[C@@H]1C[C@@H](O)[C@H](n2cnc3c(N)ncnc32)O1)Oc1ccccc1)C(=O)OCc1ccccc1 (stereo partly shown) ?
4.89

----------
- RUN_DESCRIPTION: Beagle dog 4-week toxicology and toxicokinetics
- PARTICULARS: both, beagle, plasma, iv
Below, each of the compounds is paired with its reported Tmax value.
Numeric only. Scale: min

Fill blank: measured Tmax of the compound C[C@H](NP(=O)(OC[C@@H]1C[C@@H](O)[C@H](n2cnc3c(N)ncnc32)O1)Oc1ccccc1)C(=O)OCc1ccccc1 (some centres unmarked) is ____.
15

For O=c1[nH]cnc2c1ncn2[C@@H]1O[C@H](CO)C[C@H]1O , what is its reported Tmax?
15

----------
- Test system: 501MEL
- RUN_DESCRIPTION: MTT cell viability, 501MEL
- Assay type: cell-based
- PARTICULARS: 48 h
PROPERTY_LABEL: pIC50
Please keep in mind that pIC50 is minus log10 of the molar concentration; only the number is needed.

Query (compound): C[C@H](NP(=O)(OC[C@@H]1C[C@@H](O)[C@H](n2cnc3c(N)ncnc32)O1)Oc1ccccc1)C(=O)OCc1ccccc1 (stereo partly shown) ; field requested: pIC50
4.96
